Below, each entry is listed with its recorded Fik Kinase %Inhibition.
- tested on: FLK-1 receptor (Mus musculus)
- Construct: expressed in transfected cells; host or cells: NIH3T3 C7#3
- Sequence (P35918 20-1345): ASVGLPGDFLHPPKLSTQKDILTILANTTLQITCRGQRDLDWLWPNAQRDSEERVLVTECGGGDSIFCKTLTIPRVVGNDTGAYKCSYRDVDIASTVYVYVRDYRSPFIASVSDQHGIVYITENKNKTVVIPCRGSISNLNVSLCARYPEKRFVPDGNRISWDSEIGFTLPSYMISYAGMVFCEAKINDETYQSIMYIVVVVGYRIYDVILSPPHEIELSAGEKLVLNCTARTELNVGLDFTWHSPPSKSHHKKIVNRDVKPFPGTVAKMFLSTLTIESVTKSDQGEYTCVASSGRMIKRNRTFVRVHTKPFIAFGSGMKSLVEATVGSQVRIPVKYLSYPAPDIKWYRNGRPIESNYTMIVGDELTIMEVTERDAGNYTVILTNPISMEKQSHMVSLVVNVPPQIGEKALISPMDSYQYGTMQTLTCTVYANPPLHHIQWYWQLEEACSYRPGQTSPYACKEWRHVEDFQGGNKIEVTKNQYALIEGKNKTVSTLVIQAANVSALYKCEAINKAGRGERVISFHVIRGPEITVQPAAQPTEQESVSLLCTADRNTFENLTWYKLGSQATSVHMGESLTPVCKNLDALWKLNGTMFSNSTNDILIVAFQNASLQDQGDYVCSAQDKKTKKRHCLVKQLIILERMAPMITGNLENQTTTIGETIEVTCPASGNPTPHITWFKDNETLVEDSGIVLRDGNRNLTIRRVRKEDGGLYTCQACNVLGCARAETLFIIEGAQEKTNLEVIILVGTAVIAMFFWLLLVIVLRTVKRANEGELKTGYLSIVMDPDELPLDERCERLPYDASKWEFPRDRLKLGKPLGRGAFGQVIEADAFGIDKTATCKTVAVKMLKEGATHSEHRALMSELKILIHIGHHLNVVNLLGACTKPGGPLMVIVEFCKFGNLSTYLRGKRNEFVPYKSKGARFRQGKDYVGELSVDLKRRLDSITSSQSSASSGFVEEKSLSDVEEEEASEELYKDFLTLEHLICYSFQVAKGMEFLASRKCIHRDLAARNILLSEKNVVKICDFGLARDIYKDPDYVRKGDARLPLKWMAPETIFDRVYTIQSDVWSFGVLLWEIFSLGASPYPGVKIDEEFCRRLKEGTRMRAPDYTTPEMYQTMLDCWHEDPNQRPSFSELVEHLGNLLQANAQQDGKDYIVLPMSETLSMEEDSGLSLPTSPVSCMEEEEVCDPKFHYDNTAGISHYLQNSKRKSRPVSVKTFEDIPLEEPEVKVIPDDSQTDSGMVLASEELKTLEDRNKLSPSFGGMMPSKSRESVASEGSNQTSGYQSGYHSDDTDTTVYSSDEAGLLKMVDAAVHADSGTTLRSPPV
- experiment notes: FLK-1 ELISA (kinase activity of the FLK-1 receptor in FLK-1/NIH3T3 cells, VEGF stimulated)
- Type: cell-based
- Experimental: An enzyme linked immunosorbent assay (ELISA) was conducted to measure the catalytic activity of the FLK-1 receptor and more specifically, the inhibition or activation of indolinone compounds on the catalytic activity of the FLK-1 receptor. Specifically, the following assay was conducted to measure catalytic activity of the FLK-1 receptor in FLK-1/NIH3T3 cells. […]
observation type: Fik Kinase %Inhibition (%)

In [3]: df
Out[3]:
                            structure_smiles        observation_type  measured_number
 0       O=C1Nc2ccc(CCCl)cc2C1=Cc1cc(O)ccc1O  Fik Kinase %Inhibition             -5.6
 1   CCOc1cccc(C=C2C(=O)Nc3ccc(CCCl)cc32)c1O  Fik Kinase %Inhibition              1.5
 2  Cc1c(Br)ccc2c1C(=Cc1cc(O)c(O)c(Br)c1)C(=O)N2  Fik Kinase %Inhibition              8.8
 3  COc1cccc(O)c1C=C1C(=O)Nc2ccc(S(=O)(=O)Nc3ccc(C(F)(F)F)cc3)cc21  Fik Kinase %Inhibition              4.7
 4  O=C1Nc2ccc(S(=O)(=O)Nc3ccc(C(F)(F)F)cc3)cc2C1=Cc1ccc(Cl)c([N+](=O)[O-])c1  Fik Kinase %Inhibition              9.2
 5   COc1cc(Br)cc(C=C2C(=O)Nc3ccc(I)cc32)c1O  Fik Kinase %Inhibition            -16.0
 6  O=C1Nc2ccc(S(=O)(=O)Nc3ccc(C(F)(F)F)cc3)cc2C1=Cc1cccc(Br)c1  Fik Kinase %Inhibition              5.2
 7  O=C1Nc2ccc(S(=O)(=O)Nc3ccc(C(F)(F)F)cc3)cc2C1=Cc1cc2ccccc2nc1Cl  Fik Kinase %Inhibition             25.1
 8    Cc1c(Br)ccc2c1C(=Cc1nn(C)cc1Cl)C(=O)N2  Fik Kinase %Inhibition             16.5
 9    O=C1Nc2ccc(CCCl)cc2C1=Cc1ccc(O)c(O)c1O  Fik Kinase %Inhibition             -1.6
10  O=C1Nc2ccc(S(=O)(=O)Nc3ccc(C(F)(F)F)cc3)cc2C1=Cc1coc2ccccc2c1=O  Fik Kinase %Inhibition             20.1
11  O=C1Nc2c(Br)cc(Br)cc2C1=Cc1coc2c(Br)cc(Br)cc2c1=O  Fik Kinase %Inhibition              1.9
12  O=C1Nc2ccc(S(=O)(=O)Nc3ccc(C(F)(F)F)cc3)cc2C1=Cc1ccccc1O  Fik Kinase %Inhibition            -13.8
13     Cc1c(Br)ccc2c1C(=Cc1ccc(Br)o1)C(=O)N2  Fik Kinase %Inhibition              4.0
14  Cc1c(Br)ccc2c1C(=Cc1ccc([N+](=O)[O-])cc1)C(=O)N2  Fik Kinase %Inhibition             -1.7
15  COc1c(C(C)(C)C)cc(C=C2C(=O)Nc3ccc(S(=O)(=O)Nc4ccc(C(F)(F)F)cc4)cc32)cc1C(C)(C)C  Fik Kinase %Inhibition              2.1
16  COc1cccc(C=C2C(=O)Nc3ccc(S(=O)(=O)Nc4ccc(C(F)(F)F)cc4)cc32)c1OC  Fik Kinase %Inhibition             37.3
17             O=C1Nc2ccc(I)cc2C1=Cc1ccccc1O  Fik Kinase %Inhibition             11.6
18  O=C1Nc2ccc(S(=O)(=O)Nc3ccc(C(F)(F)F)cc3)cc2C1=Cc1cc(Cl)ccc1O  Fik Kinase %Inhibition             10.7
19  COc1cc(Br)cc(C=C2C(=O)Nc3ccc(S(=O)(=O)N4CCOCC4)cc32)c1O  Fik Kinase %Inhibition            -13.2
20  Cc1cc(C=C2C(=O)Nc3ccc(S(=O)(=O)N4CCOCC4)cc32)sc1C  Fik Kinase %Inhibition              7.4
21  CC(=O)n1cc(C=C2C(=O)Nc3ccc(I)cc32)c2ccccc21  Fik Kinase %Inhibition             -0.5
22  Cc1c(Br)ccc2c1C(=Cc1ccc(F)cc1C(F)(F)F)C(=O)N2  Fik Kinase %Inhibition              9.9
23  CC(C)(C)c1cc(C=C2C(=O)Nc3ccc(CCCl)cc32)c(O)c(C(C)(C)C)c1  Fik Kinase %Inhibition             -4.1
24  CCN(CC)c1ccc(C=C2C(=O)Nc3ccc(I)cc32)c(O)c1  Fik Kinase %Inhibition             -2.3
25  CNS(=O)(=O)c1ccc2c(c1)C(=Cc1cc(C)c(O)c(C(C)(C)C)c1)C(=O)N2  Fik Kinase %Inhibition              7.8
26    COc1ccc(C=C2C(=O)Nc3ccc(Br)c(C)c32)cc1  Fik Kinase %Inhibition            -32.2
27  CNS(=O)(=O)c1ccc2c(c1)C(=Cc1ccc(Br)cc1)C(=O)N2  Fik Kinase %Inhibition              6.8
28  O=C1Nc2ccc(CCCl)cc2C1=Cc1cc(Br)cc(Br)c1O  Fik Kinase %Inhibition             21.9
29  O=C1Nc2ccc(CCCl)cc2C1=Cc1ccc(O)c([N+](=O)[O-])c1  Fik Kinase %Inhibition             -8.4
30   O=C1Nc2ccc(CCCl)cc2C1=Cc1c[nH]c2ccccc12  Fik Kinase %Inhibition              4.3
31      O=C1Nc2ccc(CCCl)cc2C1=Cc1cc(Cl)ccc1O  Fik Kinase %Inhibition             -1.1
32  N#Cc1ccc(C=C2C(=O)Nc3ccc(S(=O)(=O)Nc4ccc(C(F)(F)F)cc4)cc32)cc1  Fik Kinase %Inhibition              9.3
33  CC(C)(C)c1cc(C=C2C(=O)Nc3ccc(S(=O)(=O)N4CCOCC4)cc32)ccc1O  Fik Kinase %Inhibition             65.2
34  CCc1cc(CC)c(C=C2C(=O)Nc3ccc(I)cc32)[nH]1  Fik Kinase %Inhibition            -13.4
35      Cc1c(Br)ccc2c1C(=Cc1ncc[nH]1)C(=O)N2  Fik Kinase %Inhibition             52.5

----------
- tested on: EGFR (Homo sapiens)
- Construct: Add 7 ug A431 cell lysate per well (EGFR source); endogenous in cells; host or cells: A431
- Sequence (P00533 25-1210): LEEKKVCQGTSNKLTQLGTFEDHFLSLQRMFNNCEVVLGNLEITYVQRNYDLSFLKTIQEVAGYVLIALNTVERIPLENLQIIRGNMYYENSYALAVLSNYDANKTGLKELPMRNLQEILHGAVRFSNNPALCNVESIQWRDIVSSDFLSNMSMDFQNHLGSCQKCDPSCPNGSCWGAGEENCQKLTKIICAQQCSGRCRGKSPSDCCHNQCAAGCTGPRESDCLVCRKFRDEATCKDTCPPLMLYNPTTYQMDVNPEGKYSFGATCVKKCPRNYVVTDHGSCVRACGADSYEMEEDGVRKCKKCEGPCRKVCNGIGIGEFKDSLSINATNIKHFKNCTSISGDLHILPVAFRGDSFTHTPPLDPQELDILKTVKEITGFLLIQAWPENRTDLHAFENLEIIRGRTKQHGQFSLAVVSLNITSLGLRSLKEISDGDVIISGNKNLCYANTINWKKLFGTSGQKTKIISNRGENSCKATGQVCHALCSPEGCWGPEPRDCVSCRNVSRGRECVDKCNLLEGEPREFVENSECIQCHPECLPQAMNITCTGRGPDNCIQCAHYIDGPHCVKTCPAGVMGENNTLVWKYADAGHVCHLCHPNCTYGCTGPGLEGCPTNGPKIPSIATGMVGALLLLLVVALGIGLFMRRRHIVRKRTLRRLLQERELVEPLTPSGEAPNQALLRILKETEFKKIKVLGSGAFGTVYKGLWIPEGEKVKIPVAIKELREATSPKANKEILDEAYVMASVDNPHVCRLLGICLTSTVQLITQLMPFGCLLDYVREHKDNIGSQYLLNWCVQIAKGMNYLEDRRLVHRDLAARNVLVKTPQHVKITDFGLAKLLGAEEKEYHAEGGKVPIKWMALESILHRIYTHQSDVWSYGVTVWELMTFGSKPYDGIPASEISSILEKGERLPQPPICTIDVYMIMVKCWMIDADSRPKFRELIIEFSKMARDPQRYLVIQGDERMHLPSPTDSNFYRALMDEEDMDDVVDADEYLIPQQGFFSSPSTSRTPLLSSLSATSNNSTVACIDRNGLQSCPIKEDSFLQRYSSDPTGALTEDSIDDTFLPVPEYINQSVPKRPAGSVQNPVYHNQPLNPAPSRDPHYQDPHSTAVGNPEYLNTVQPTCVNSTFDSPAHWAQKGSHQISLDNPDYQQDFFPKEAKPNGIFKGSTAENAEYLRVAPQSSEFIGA
- experiment notes: EGFR ELISA assay (in vitro kinase activity, EGFR captured from A431 cell lysate)
- Format: biochemical
- Set-up: concentration or dose not given beside the values
observation type: Biochem EGFR %Inhibition (%)

                                   compound          observation_type  measured_number
0  Cc1ccc(C=C2C(=O)Nc3ccc(CCCl)cc32)s1 [10717/G07]  Biochem EGFR %Inhibition             13.1
1  CNS(=O)(=O)c1ccc2c(c1)C(=Cc1ccc(C)s1)C(=O)N2 [10717/D07]  Biochem EGFR %Inhibition             -4.5
2  CC(C)(C)c1cc(C=C2C(=O)Nc3ccc(CCCl)cc32)ccc1O [10721/G09]  Biochem EGFR %Inhibition             14.9
3  CNS(=O)(=O)c1ccc2c(c1)C(=Cc1cc([N+](=O)[O-])c(O)c(C(C)(C)C)c1)C(=O)N2 [10722/D02]  Biochem EGFR %Inhibition             26.1
4  O=C1Nc2c(Br)cc(Br)cc2C1=Cc1ccc(O)c(Br)c1 [10734/A09]  Biochem EGFR %Inhibition             27.3

----------
- tested on: PDGF-R (Homo sapiens)
- Sequence (P09619 33-1106, species assumed): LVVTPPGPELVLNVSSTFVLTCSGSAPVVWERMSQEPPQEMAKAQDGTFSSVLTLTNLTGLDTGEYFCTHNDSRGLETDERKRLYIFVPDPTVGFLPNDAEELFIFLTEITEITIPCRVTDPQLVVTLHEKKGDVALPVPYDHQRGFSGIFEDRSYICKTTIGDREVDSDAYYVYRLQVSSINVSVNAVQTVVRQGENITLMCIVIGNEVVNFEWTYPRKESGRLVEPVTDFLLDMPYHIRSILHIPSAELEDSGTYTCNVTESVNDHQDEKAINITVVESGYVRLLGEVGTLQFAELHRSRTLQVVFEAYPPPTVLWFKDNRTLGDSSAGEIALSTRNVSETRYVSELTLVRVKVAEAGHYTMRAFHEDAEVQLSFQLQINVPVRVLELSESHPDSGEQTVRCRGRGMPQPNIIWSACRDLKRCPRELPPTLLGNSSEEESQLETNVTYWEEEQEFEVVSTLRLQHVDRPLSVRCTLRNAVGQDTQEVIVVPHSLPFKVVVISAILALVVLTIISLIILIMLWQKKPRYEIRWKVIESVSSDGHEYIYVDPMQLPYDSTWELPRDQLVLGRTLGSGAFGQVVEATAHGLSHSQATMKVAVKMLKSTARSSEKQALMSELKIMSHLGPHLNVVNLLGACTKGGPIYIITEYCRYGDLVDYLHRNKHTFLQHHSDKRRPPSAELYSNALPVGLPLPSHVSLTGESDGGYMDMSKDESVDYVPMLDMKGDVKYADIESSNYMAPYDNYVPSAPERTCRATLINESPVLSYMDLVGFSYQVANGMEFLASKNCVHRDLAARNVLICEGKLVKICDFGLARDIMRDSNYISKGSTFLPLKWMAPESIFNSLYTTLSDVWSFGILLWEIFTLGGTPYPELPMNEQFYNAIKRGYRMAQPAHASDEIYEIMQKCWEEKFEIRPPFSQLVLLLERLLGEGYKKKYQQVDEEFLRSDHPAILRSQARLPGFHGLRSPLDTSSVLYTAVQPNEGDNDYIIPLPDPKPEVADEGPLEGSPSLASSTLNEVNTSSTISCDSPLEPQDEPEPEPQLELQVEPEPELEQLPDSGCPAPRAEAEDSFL
- experiment notes: PDGF-R ELISA
- Assay type: cell-based
Threshold check on PDGF Kinase %Inhibition: strictly below 10% is Yes; on or above 10% is No.

In [3]: df
Out[3]:
                                    molecule              tested_on  discrete_label
 0  COc1ccc2ccccc2c1C=C1C(=O)Nc2ccc(S(=O)(=O)Nc3ccc(C(F)(F)F)cc3)cc21 [10729/E02]  PDGF-R (Homo sapiens)              No
 1  CNS(=O)(=O)c1ccc2c(c1)C(=Cc1cc(C(C)(C)C)cc(C(C)(C)C)c1O)C(=O)N2 [10723/D11]  PDGF-R (Homo sapiens)              No
 2  CCn1c2ccccc2c2cc(C=C3C(=O)Nc4ccc(S(=O)(=O)N5CCOCC5)cc43)ccc21 [10731/F02]  PDGF-R (Homo sapiens)              No
 3  CC(C)(C)c1cc(C=C2C(=O)Nc3ccc(CCCl)cc32)cc(I)c1OCc1ccccc1 [10733/G02]  PDGF-R (Homo sapiens)             Yes
 4  COc1ccc(C=C2C(=O)Nc3ccc(Br)c(C)c32)c2ccccc12 [10729/C03]  PDGF-R (Homo sapiens)              No
 5  COC(=O)Cc1c(Cl)[nH]c(C=C2C(=O)Nc3ccc(S(=O)(=O)N4CCOCC4)cc32)c1C(=O)OC [10725/F09]  PDGF-R (Homo sapiens)              No
 6  COc1ccc(C=C2C(=O)Nc3ccc(S(=O)(=O)N4CCOCC4)cc32)c(OC)c1OC [10730/F02]  PDGF-R (Homo sapiens)              No
 7  CCn1c2ccccc2c2cc(C=C3C(=O)Nc4ccc(S(=O)(=O)NC)cc43)ccc21 [10731/D02]  PDGF-R (Homo sapiens)              No
 8  Cc1c(Br)ccc2c1C(=Cc1ccc(O)c(Br)c1)C(=O)N2 [10734/C09]  PDGF-R (Homo sapiens)              No
 9  COc1ccc(C=C2C(=O)Nc3ccc(S(=O)(=O)Nc4ccc(C(F)(F)F)cc4)cc32)c2ccccc12 [10729/E03]  PDGF-R (Homo sapiens)              No
10  Cc1c(Br)ccc2c1C(=Cc1coc3ccc(C(C)C)cc3c1=O)C(=O)N2 [10731/C05]  PDGF-R (Homo sapiens)              No
11  CNS(=O)(=O)c1ccc2c(c1)C(=Cc1ccc(-c3ccccc3Cl)o1)C(=O)N2 [10730/D07]  PDGF-R (Homo sapiens)             Yes
12  CNS(=O)(=O)c1ccc2c(c1)C(=Cc1ccccc1Br)C(=O)N2 [10723/D07]  PDGF-R (Homo sapiens)              No
13  O=C1Nc2ccc(I)cc2C1=Cc1c[nH]c(=O)[nH]c1=O [10731/B08]  PDGF-R (Homo sapiens)             Yes
14  O=C1Nc2c(Br)cc(Br)cc2C1=Cc1cccc(Br)c1 [10723/A10]  PDGF-R (Homo sapiens)              No
15  Cc1ccc(C=C2C(=O)Nc3ccc(CCCl)cc32)o1 [10725/G04]  PDGF-R (Homo sapiens)             Yes
16  COc1c(Cl)cc(C=C2C(=O)Nc3ccc(S(=O)(=O)N4CCOCC4)cc32)cc1C(C)(C)C [10732/F09]  PDGF-R (Homo sapiens)              No
17  COc1c(C(C)(C)C)cc(C=C2C(=O)Nc3ccc(I)cc32)cc1C(C)(C)C [10733/B04]  PDGF-R (Homo sapiens)              No
18  COc1c([N+](=O)[O-])cc(C=C2C(=O)Nc3ccc(S(=O)(=O)Nc4ccc(C(F)(F)F)cc4)cc32)cc1C(C)(C)C [10733/E03]  PDGF-R (Homo sapiens)              No
19  CNS(=O)(=O)c1ccc2c(c1)C(=Cc1c[nH]c3ccc(OC)cc13)C(=O)N2 [10731/D09]  PDGF-R (Homo sapiens)             Yes
20  O=C1Nc2ccc(S(=O)(=O)Nc3ccc(C(F)(F)F)cc3)cc2C1=Cc1cc(Cl)ccc1O [10734/E04]  PDGF-R (Homo sapiens)              No
21  CNS(=O)(=O)c1ccc2c(c1)C(=Cc1ccc(O)c(Br)c1)C(=O)N2 [10734/D09]  PDGF-R (Homo sapiens)              No
22  COc1ccc(C=C2C(=O)Nc3ccc(S(=O)(=O)N4CCOCC4)cc32)cc1C(C)(C)C [10732/F05]  PDGF-R (Homo sapiens)              No
23  O=C1Nc2ccc(CCCl)cc2C1=Cc1ccc(Br)s1 [10734/G11]  PDGF-R (Homo sapiens)             Yes
24  COC1CC(C=C2C(=O)Nc3ccc(I)cc32)C(OC)O1 (stereo not shown) [10730/B10]  PDGF-R (Homo sapiens)              No
25  O=C1Nc2c(Br)cc(Br)cc2C1=Cc1coc2ccc(Cl)cc2c1=O [10730/A06]  PDGF-R (Homo sapiens)             Yes
26  COc1ccc(C=C2C(=O)Nc3ccc(Br)c(C)c32)c(O)c1 [10723/C09]  PDGF-R (Homo sapiens)              No
27  O=C1Nc2c(Br)cc(Br)cc2C1=Cc1c(O)cc(O)cc1O [10722/A03]  PDGF-R (Homo sapiens)              No
28  O=C1Nc2ccc(S(=O)(=O)Nc3ccc(C(F)(F)F)cc3)cc2C1=Cc1ccc(C(F)(F)F)cc1 [10722/E11]  PDGF-R (Homo sapiens)              No
29  Cc1c(Br)ccc2c1C(=Cc1ccc(C#N)cc1)C(=O)N2 [10727/C09]  PDGF-R (Homo sapiens)              No
30  O=C1Nc2ccc(S(=O)(=O)Nc3ccc(C(F)(F)F)cc3)cc2C1=Cc1cc(O)c2c(c1O)CCCC2 [10726/E07]  PDGF-R (Homo sapiens)             Yes
31  O=C1Nc2ccc(S(=O)(=O)N3CCOCC3)cc2C1=Cc1ccc(N2CCOCC2)cc1 [10725/F08]  PDGF-R (Homo sapiens)              No
32  Cc1cn(C)cc1C=C1C(=O)Nc2ccc(CCCl)cc21 [10726/G06]  PDGF-R (Homo sapiens)             Yes
33  CC(C)(C)c1cc(C=C2C(=O)Nc3ccc(S(=O)(=O)N4CCOCC4)cc32)cc(Br)c1OCc1ccccc1 [10732/F08]  PDGF-R (Homo sapiens)              No
